protocolDetails: Caco-2 cell permeability
Type: in vitro ADME
cond: human, 10 μM, 2 h, 37 °C
reportedProperty: Papp A→B at 2 h, 10 µM (×10⁻⁶ cm/s)
Report as a plain number; the unit ×10⁻⁶ cm/s is understood.

Query: Any idea what its Papp A→B at 2 h, 10 µM is? The compound is O=C(NC12CC3CC(F)(CC(C1)c1ccccc13)C2)N[C@H]1CC[C@H](Oc2ccc(C(=O)O)cc2)CC1
Result: 0.09

Query: Any idea what its Papp A→B at 2 h, 10 µM is? The compound is O=C(NC12CC3CC(Cl)(CC(C1)c1ccccc13)C2)N[C@H]1CC[C@H](Oc2ccc(C(=O)O)cc2)CC1
Result: 2.15

Query: Any idea what its Papp A→B at 2 h, 10 µM is? The compound is CC12CC3CC(NC(=O)N[C@H]4CC[C@H](Oc5ccc(C(=O)O)cc5)CC4)(CC(C1)c1ccccc13)C2
Result: 1
